The measured values listed here are drawn from patent US20220064331A1.

- TARGET_DESC: T1, rabbit KLB (+N-ter FLAG) (rabbit)
- T1 construct: expressed from KLB cDNA on HEK293T cells and read by FACS
- T1 chain: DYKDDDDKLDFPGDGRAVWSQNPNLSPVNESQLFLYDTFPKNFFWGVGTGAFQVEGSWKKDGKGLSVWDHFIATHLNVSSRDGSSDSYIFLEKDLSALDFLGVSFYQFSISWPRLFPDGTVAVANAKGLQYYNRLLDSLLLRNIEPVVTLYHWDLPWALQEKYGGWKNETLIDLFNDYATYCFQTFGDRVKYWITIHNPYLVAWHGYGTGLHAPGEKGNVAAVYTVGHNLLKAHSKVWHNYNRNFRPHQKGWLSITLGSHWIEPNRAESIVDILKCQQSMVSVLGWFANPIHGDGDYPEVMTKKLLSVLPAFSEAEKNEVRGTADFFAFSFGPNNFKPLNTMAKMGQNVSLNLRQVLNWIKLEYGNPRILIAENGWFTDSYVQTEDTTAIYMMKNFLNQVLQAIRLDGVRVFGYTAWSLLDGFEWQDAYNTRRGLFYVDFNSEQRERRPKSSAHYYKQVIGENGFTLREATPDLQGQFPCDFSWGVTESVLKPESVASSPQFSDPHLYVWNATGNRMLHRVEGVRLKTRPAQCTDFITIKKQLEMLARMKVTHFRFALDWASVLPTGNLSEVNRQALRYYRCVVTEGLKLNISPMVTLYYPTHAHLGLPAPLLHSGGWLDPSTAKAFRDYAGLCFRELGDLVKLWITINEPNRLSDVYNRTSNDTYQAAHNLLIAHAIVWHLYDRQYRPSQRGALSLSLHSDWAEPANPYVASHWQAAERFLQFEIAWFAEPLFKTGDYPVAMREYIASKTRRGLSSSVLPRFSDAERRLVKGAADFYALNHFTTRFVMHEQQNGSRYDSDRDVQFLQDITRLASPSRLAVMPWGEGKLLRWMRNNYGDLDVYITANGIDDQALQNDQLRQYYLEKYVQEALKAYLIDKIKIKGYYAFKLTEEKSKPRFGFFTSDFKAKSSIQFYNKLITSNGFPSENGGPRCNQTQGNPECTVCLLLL
- TEST_PROTOCOL: FACS on transfected HEK293T cells
METRIC_NAME: binding result

[[record]]
binder = "14C10 (antibody, V domains shown, murine hybridoma-derived anti-KLB antibody; also called KLBmAb3) VH: QVTLKESGPGILQPSQTLSLTCSFSGFSLSTSAMGIGWIRQPSGKGLEWLAHIWWDDDKRYNPALKSRLTISKDTSRNQVFLKIASVDTADTATYFCARIDGIYDGSFYAMDYWGQGTSVTVSS VL: DIVLTQSPASLAVSLGQRATISCRASESVDSYGNSFMHWYQQKPGQPPKLLIYRASNLESGIPARFSGSGSRTDFTLTINPVEADDVANYYCQQSNEDYTFGGGTKLEIK"
value_observed = "binds"

[[record]]
binder = "14C6 (antibody, V domains shown, murine hybridoma-derived anti-KLB antibody) VH: QIQLQQSGAELMKPGASVRMSCKASGYTFSSYWIEWVKQRSGHGLEWIGEIFPGGGSTIYNENFRDKATFTADTSSNTAYMQLSSLTSEDSAVYFCARRGYYDAAWFDYWGQGTLVTVSA VL: QIVLTQSPAIMSASPGERVTLTCSASSSLSSSYLYWYQQKPGSSPKLWIYGASNLASGVPGRFSGSGSGTSYSLTISSMEAEDAASYFCHQWSSYPLTFGSGTKLELK"
value_observed = "binds"

[[record]]
binder = "12A11 (antibody, V domains shown, murine hybridoma-derived anti-KLB antibody; also called KLBmAb2) VH: EVKFLESGGGLVQPGGSLRLSCAVSGIDFSRYWMSWVRQAPGKGLEWIGEISPDSSTINYTPSLKDKFVISRDNAKNTLYLQMSKVRSADTALYYCARPSPALDYWGQGTLVTVSA VL: DIVMTQSPATLSVTPGDRVSLSCRASQSISDYVYWYQQKSHESPRLLIIYASQSISGIPSRFSGSGSGSDFTLSINSVEPEDVGVYYCQNGHNFPYTFGGGTKLEIK"
value_observed = "binds"

